The values you see were collected from patent US20200399391A1.

assay-target: T1, human CD38 (human, UniProt P28907 43-300, limits assumed)
T1 construct: Soluble analyte in SPR; the construct (limits, tags) is not described; also called huCD38
assay: SPR (Biacore), mAb captured on anti-Fc chip, after thermal stress of the mAb (14 days at 40 C); n = 3
measured-quantity: kon (M⁻¹ s⁻¹)

INSERT INTO assay_data (binder, measured_quantity, quantitative_readout) VALUES
  ('mAb 7 (antibody, human IgG1, kappa, V domains shown, Humanized heavy and light chains with engineered Fc; also called anti-CD38 mAb 7; HEAVY CHAIN 6 / LIGHT CHAIN 2) VH: QVQLVQSGAEVAKPGASVKVSCKASGYTFTDYWMQWVKQRPGQGLEWIGTIYPGDGDTGYAQKFQGRVTMTADKSTSTVYMELSSLRSEDTAVYYCARGDYYGSNSLDYWGQGTLVTVSS VL: DIVMTQSPDSLAVSLGERATINCKSSQDVSTVLAWYQQKPGQSPRRLIYSASYRYIGVPDRFSGSGSGTDFTLTISSLQAEDVAVYYCQQHYSPPYTFGGGTKLEIKR', 'kon', '3.39e+06');
